TGT: T1, Human GHR-Fc-10x His (extracellular region of human growth hormone receptor fused to human Fc) (human, UniProt P10912 50-256)
T1 construct: Captured by its 10x His-tag on a Ni-NTA sensor chip for SPR; not shown: human Fc domain of vector pAB1200 with its linker; 10x His-tag replacing the AviTag
T1 sequence (looked up): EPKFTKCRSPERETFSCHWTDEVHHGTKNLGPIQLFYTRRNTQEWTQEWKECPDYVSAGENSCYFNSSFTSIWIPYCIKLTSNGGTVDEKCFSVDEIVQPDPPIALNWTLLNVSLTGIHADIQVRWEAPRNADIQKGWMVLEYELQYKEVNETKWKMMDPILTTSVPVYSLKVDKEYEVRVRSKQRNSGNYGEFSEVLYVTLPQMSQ
ASSAY NOTES: SPR, GHR-Fc-10xHis captured on Ni-NTA chip, Fab as analyte, 1:1 fit
As shown below, each of these binders has a reported kon value.
Report the value in M⁻¹ s⁻¹ with no unit label.

GHR9 Fab (Fab, V domains shown, Fab) VH: EVQLVESGGGLVQPGGSLRLSCAASGFNVSYSSIHWVRQAPGKGLEWVASISSSYGSTYYADSVKGRFTISADTSKNTAYLQMNSLRAEDTAVYYCARYYDYSWSTYKGIGTGAIDYWGQGTLVTVSS VL: DIQMTQSPSSLSASVGDRVTITCRASQSVSSAVAWYQQKPGKAPKLLIYSASSLYSGVPSRFSGSRSGTDFTLTISSLQPEDFATYYCQQYWYSYLITFGQGTKVEIKR :: 238000

Reported kon for GHR15 Fab (Fab, V domains shown, Fab) VH: EVQLVESGGGLVQPGGSLRLSCAASGFNVSSSSIHWVRQAPGKGLEWVASIYSYYGYTSYADSVKGRFTISADTSKNTAYLQMNSLRAEDTAVYYCARSSGYHGWYWNGMDYWGQGTLVTVSS VL: DIQMTQSPSSLSASVGDRVTITCRASQSVSSAVAWYQQKPGKAPKLLIYSASSLYSGVPSRFSGSRSGTDFTLTISSLQPEDFATYYCQQWYGMSLVTFGQGTKVEIKR : what is it?
170000
